Where do the numbers come from? From PubChem BioAssay AID1347043.

- targetDesc: Luciferin 4-monooxygenase (Photinus pyralis)
- assaySummary: Firefly luciferase inhibition profiling of diverse chemical library using quantitative high-throughput screening; also: nearly all actives have a fitted effect of over 65% in size
- testConditions: purified P. pyralis luciferase, luminescence, biochemical; series mostly up to 115 µM
The whole screen tested about 76,000 compounds, of which about 1,900 (2.5%) were called active. Roughly 5% stayed inconclusive and do not appear here. Calls follow the shape of the dose curve; as a rule, active = well fitted inhibition curve with a large enough effect; inconclusive = small, poorly fitted or top-dose-only effect; inactive = flat fitted curve, though single readings scatter. What follows is part of a selection rich in actives, with near analogues and random picks from the rest.
I would appreciate it if you answered using one of these outcomes: TRUE (active), FALSE (inactive)

CCCNC(=O)N(C1CCOCC1)C1CCN(C(=O)c2ccncc2)CC1 ... FALSE

Task: Per the records of this test, what outcome belongs to `COc1ncccc1-c1cc(-c2cn[nH]c2)c2cncn2c1` ?
Output: FALSE

Task: Record lookup: outcome of this test for `Cc1ccc(S(=O)(=O)N2CCC(CCC(=O)NCc3ccccc3)CC2)cc1` ?
Output: FALSE

Task: # fetch the recorded call for `O=C1CN(Cc2ccc(-c3ccccc3)cc2)CCN1c1cc(Cl)ncn1` here
Output: FALSE

Task: Record lookup: outcome of this test for `CN(C)C[C@@H]1CN(C)C[C@H]1NC(=O)c1cc2ccccc2[nH]1` ?
Output: TRUE
